The measurements presented in this section are drawn from BigSolDB 2.1.

- assay-context: in water, 278.15 K
readout: solubility (mole fraction)
# print the numeric value only

Given the molecule O=C(Nc1ccc(F)cc1F)c1cccnc1Oc1cccc(C(F)(F)F)c1 , what is its reported solubility (mole fraction)?
1.52e-07

---

- assay-context: in isopropanol, 293.15 K
readout: solubility (mole fraction)
# print the numeric value only

Given the compound O=C(Nc1ccc(F)cc1F)c1cccnc1Oc1cccc(C(F)(F)F)c1 , what is its reported solubility (mole fraction)?
0.000186

---

- assay-context: in isopropanol, 303.15 K
readout: solubility (mole fraction)
# print the numeric value only

Given the molecule O=C(Nc1ccc(F)cc1F)c1cccnc1Oc1cccc(C(F)(F)F)c1 , what is its reported solubility (mole fraction)?
0.000456
